As an illustration, consider measured IC50 for molecules on FLT3 (Homo sapiens).
Sequence (P36888 27-993): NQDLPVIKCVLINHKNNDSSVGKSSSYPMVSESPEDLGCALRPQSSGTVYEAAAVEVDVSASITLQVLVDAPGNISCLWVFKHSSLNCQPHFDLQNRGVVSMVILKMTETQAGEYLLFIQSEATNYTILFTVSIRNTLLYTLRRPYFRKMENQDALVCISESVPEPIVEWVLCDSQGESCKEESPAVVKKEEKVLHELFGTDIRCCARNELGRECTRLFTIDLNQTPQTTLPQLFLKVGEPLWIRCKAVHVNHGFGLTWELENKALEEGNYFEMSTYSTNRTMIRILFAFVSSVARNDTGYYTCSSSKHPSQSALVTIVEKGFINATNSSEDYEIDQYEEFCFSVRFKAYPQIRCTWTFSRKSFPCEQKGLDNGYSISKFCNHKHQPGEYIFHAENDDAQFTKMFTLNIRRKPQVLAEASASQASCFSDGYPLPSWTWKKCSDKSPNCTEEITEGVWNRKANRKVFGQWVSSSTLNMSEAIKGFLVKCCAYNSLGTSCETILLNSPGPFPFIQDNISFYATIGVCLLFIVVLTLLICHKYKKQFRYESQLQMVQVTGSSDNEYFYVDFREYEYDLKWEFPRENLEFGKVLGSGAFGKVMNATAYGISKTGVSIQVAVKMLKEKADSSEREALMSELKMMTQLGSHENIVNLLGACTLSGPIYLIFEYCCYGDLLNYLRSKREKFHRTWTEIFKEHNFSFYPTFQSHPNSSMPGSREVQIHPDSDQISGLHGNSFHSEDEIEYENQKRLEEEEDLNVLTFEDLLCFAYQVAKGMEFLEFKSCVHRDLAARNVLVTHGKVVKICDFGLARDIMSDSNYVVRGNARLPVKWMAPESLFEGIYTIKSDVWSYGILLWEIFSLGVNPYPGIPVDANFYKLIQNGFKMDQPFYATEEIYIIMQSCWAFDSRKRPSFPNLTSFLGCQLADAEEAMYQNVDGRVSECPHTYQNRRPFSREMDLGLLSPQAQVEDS
Give bare numbers, in nM.

molecule: CCC(=O)N1CCN(C(=O)[C@H]2CCCN2c2nc3c(c(Nc4cc(C5CCCC5)[nH]n4)n2)CCC3)CC1 [143a]
uom: nM
IC50: 13.9

Now look at this entry.
Sample CCN(C(=O)[C@@H]1CCCN1c1nc2c(c(Nc3cc(C(C)C)[nH]n3)n1)CCC2)c1nccs1 [145b] ; IC50 observed: 155

* * *

Target or system Trk B (Homo sapiens, UniProt Q16620); recorded quantity IC50.
Give bare numbers, in nM.

compound: O=C([C@H]1CCCN1c1nc2c(c(Nc3cc(C4CCCC4)[nH]n3)n1)CCC2)N1CC(F)(F)C(F)(F)C1 [110a]
IC50, nM: 171

Field: IC50. Fill in for each record below.
1. O=C(Nc1nccs1)[C@@H]1CCCN1c1nc2c(c(Nc3cc(C4CCCC4)[nH]n3)n1)CCC2 [133b]
2. CC(C)c1cc(Nc2nc(N3CCC[C@@H]3C(=O)N3CCCC3)nc3c2CCC3)n[nH]1 [138a]
3. CN(C(=O)[C@@H]1CCCN1c1nc2c(c(Nc3cc(C4CCCC4)n[nH]3)n1)CCC2)c1nccs1 [70b]
4. CN1CCN(C(=O)[C@@H]2CCCN2c2nc3c(c(Nc4cc(C5CCCC5)n[nH]4)n2)CCC3)CC1=O [136b]
5. CN(C)C(=O)[C@H]1CCCN1c1nc2c(c(Nc3cc(C4CCOCC4)[nH]n3)n1)CCC2 [91a]
6. O=C([C@@H]1CCCN1c1nc2c(c(Nc3cc(C4CCCC4)[nH]n3)n1)CCC2)N1CCC(F)(F)C1 [109b]
7. CC(C)c1cc(Nc2nc(N3CCC[C@@H]3C(=O)N3CCC(F)(F)C3)nc3c2CCC3)n[nH]1 [139a]

Marked response:
1. 0.038
2. 246
3. 2
4. 106
5. 403
6. 1
7. 258

* * *

Please go through the items and note down their inhibition at 1 µM.
measurement_target: activated IR (Homo sapiens, UniProt P06213)
Construct: purchased Millipore 14-803
Sequence (P06213 28-1382): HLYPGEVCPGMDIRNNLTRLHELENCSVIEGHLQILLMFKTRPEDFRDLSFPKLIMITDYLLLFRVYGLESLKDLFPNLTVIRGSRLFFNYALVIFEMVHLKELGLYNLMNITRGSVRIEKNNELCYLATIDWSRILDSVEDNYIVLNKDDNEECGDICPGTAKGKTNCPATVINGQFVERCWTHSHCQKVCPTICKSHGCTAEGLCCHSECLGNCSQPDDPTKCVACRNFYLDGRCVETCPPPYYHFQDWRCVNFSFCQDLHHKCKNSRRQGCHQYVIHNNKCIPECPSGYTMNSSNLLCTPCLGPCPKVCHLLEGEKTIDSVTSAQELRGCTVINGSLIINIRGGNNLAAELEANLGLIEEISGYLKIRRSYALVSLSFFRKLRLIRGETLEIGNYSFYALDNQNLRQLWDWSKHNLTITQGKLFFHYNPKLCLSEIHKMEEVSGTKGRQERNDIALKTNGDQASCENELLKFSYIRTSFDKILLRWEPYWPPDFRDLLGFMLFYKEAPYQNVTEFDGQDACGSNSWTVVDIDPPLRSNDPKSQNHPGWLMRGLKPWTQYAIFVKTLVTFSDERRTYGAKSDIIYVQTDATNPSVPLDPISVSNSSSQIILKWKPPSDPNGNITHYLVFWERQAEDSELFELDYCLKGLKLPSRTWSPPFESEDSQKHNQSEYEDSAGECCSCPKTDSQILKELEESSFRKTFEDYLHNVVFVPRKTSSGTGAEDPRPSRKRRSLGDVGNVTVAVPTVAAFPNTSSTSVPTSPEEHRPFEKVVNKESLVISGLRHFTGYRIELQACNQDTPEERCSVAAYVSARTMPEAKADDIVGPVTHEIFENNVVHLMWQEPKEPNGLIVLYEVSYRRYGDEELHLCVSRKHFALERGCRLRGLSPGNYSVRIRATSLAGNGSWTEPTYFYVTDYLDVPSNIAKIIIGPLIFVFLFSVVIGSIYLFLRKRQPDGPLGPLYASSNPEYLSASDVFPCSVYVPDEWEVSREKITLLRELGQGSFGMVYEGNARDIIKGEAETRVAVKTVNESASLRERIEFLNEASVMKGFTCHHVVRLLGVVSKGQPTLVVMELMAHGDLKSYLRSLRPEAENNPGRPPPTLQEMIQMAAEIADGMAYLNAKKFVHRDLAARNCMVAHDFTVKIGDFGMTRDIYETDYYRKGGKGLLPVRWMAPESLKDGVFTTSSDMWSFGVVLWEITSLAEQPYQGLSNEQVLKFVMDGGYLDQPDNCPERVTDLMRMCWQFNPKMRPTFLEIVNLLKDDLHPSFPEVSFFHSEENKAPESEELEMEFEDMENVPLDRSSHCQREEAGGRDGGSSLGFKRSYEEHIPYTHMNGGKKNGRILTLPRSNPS
assay_protocol: In vitro IR enzymatic assay (ADP-Glo)
Type: biochemical
details: compound 1 μM, ATP 50 μM
Experimental: Inhibition of IGF-1R and IR kinases by compounds described herein were tested. The IC50 values were measured in vitro using an ADP-Glo kinase assay Kit (Promega). For the IGF-1R assay, active recombinant IGF-1R (Millipore #14-802) was used at 1 ng/reaction, the substrate IGF-1R tide (Millipore #12-527) was used at 125 μM and ATP was used at 100 μM. […]
Numbers only, in %.

Some molecules with known inhibition at 1 µM results, for comparison:
molecule: CC(C)c1cc(Nc2nc(N3CCC[C@@H]3C(=O)N3CCC(F)(F)C3)nc3c2CCC3)n[nH]1 [139a]
uom: %
inhibition at 1 µM: 42

molecule: CN1CCN(C(=O)[C@H]2CCCN2c2nc3c(c(Nc4cc(C5CCCC5)n[nH]4)n2)CCC3)CC1=O [136a]
uom: %
inhibition at 1 µM: 64

molecule: CC(=O)N1CCN(C(=O)[C@@H]2CCCN2c2nc3c(c(Nc4cc(C5CCCC5)n[nH]4)n2)CCC3)CC1 [137b]
uom: %
inhibition at 1 µM: 19

molecule: CN1CCN(C(=O)[C@@H]2CCCN2c2nc3c(c(Nc4cc(C5CCCC5)n[nH]4)n2)CCC3)CC1=O [136b]
uom: %
inhibition at 1 µM: -2

molecule: CC1(C)CCN(C(=O)[C@H]2CCCN2c2nc3c(c(Nc4cc(C5CCCC5)n[nH]4)n2)CCC3)CC1 [141a]
uom: %
inhibition at 1 µM: 17

molecule: CN(C(=O)[C@@H]1CCCN1c1nc2c(c(Nc3cc(C4CCCC4)n[nH]3)n1)CCC2)c1nccs1 [70b]
uom: %
inhibition at 1 µM: 30

Please supply inhibition at 1 µM for each of the following items, keeping them in order.
1. CN(C)C(=O)[C@H]1CCCN1c1nc2c(c(Nc3cc(C4CCOCC4)[nH]n3)n1)CCC2 [91a]
2. CN(C)C(=O)[C@@H]1CCCN1c1nc2c(c(Nc3cc(C4CCOCC4)[nH]n3)n1)CCC2 [91b]
3. O=C([C@H]1CCCN1c1nc2c(c(Nc3cc(C4CCCC4)[nH]n3)n1)CCC2)N1CC(F)(F)C(F)(F)C1 [110a]
4. CN1CCN(C(=O)[C@@H]2CCCN2c2nc3c(c(Nc4cc(C5CCCC5)[nH]n4)n2)CCC3)CC1 [134b]
5. O=C([C@@H]1CCCN1c1nc2c(c(Nc3cc(C4CCCC4)[nH]n3)n1)CCC2)N1CC(F)(F)C(F)(F)C1 [110b]
6. CC(C)c1cc(Nc2nc(N3CCC[C@@H]3C(=O)N3CC(F)(F)C(F)(F)C3)nc3c2CCC3)n[nH]1 [112a]

Marked response:
1. 5
2. 1
3. 32
4. 26
5. 3
6. 35

Fill in inhibition at 1 µM for each of the 4 molecules listed.
1. CC(C)c1cc(Nc2nc(N3CCC[C@H]3C(=O)N3CC(F)(F)C(F)(F)C3)nc3c2CCC3)n[nH]1 [112b]
2. CC(C)c1cc(Nc2nc(N3CCC[C@H]3C(=O)N(C)c3nccs3)nc3c2CCC3)n[nH]1 [68b]
3. CC(C)c1cc(Nc2nc(N3CCC[C@@H]3C(=O)N3CCCC3)nc3c2CCC3)n[nH]1 [138a]
4. CC(C)c1cc(Nc2nc(N3CCC[C@H]3C(=O)N3CCC(F)(F)C3)nc3c2CCC3)n[nH]1 [111b]

Marked response:
12
77
37
35
